test-name: Antioxidant activity assessed as glutathione peroxidase-like activity by UV spectrophotometry relative to ebselen
Format: physicochemical
Outcome label depends on Ratio relative to 3: at/above gives t, below gives f.

> print(dat)
                                   molecule  group
1  O=C(CC[Se][Se]CCC(=O)NCCc1ccccc1)NCCc1ccccc1      f
2  O=C(C[Se][Se]CC(=O)NCCc1ccccc1)NCCc1ccccc1      t
3  CC(Cc1ccccc1)NC(=O)CC[Se][Se]CCC(=O)NC(C)Cc1ccccc1 (stereo unspecified)      f
4  O=C(NCCc1ccccc1)c1ccccc1[Se][Se]c1ccccc1C(=O)NCCc1ccccc1      t
5  CC(Cc1ccccc1)NC(=O)c1ccccc1[Se][Se]c1ccccc1C(=O)NC(C)Cc1ccccc1 (stereo unspecified)      t
6                c1ccc([Se][Se]c2ccccc2)cc1      f

---

test-name: Antioxidant activity assessed as glutathione peroxidase-like activity assessed as time required to reduce the thiol concentration by 50% after addition of H2O2 by UV spectrophotometry
Format: physicochemical
measured-metric: Time

> print(dat)
                                   compound  measured.metric  observed.measurement
1  CC(Cc1ccccc1)NC(=O)CC[Se][Se]CCC(=O)NC(C)Cc1ccccc1 (stereo not drawn)             Time                76 min
2  O=C(CC[Se][Se]CCC(=O)NCCc1ccccc1)NCCc1ccccc1             Time             81.43 min
3               O=c1c2ccccc2[se]n1-c1ccccc1             Time            154.26 min
4  O=C(NCCc1ccccc1)c1ccccc1[Se][Se]c1ccccc1C(=O)NCCc1ccccc1             Time             29.73 min
5  O=C(C[Se][Se]CC(=O)NCCc1ccccc1)NCCc1ccccc1             Time              44.9 min
6  CC(Cc1ccccc1)NC(=O)C[Se][Se]CC(=O)NC(C)Cc1ccccc1 (stereo not drawn)             Time            299.63 min
7  CC(Cc1ccccc1)NC(=O)c1ccccc1[Se][Se]c1ccccc1C(=O)NC(C)Cc1ccccc1 (stereo not drawn)             Time             16.87 min
8                c1ccc([Se][Se]c2ccccc2)cc1             Time             55.04 min

---

target: UniProt O89049
Sequence (O89049 whole entry): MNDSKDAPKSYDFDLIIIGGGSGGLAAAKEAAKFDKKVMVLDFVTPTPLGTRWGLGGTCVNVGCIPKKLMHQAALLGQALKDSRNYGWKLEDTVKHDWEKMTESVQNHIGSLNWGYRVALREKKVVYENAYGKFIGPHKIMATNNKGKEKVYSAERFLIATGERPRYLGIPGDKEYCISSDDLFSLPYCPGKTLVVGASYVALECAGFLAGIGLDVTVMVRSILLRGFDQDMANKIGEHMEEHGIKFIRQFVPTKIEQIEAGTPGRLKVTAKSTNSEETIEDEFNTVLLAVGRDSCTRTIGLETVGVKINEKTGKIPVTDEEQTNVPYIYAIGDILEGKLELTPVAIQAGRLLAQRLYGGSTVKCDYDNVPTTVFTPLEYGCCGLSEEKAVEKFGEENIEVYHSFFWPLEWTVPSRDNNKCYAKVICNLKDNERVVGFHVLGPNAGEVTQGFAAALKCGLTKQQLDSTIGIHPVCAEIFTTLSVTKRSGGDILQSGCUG
test-name: Activity of partially purified rat Thioredoxin reductase assessed as NADPH oxidation after 10 mins by spectrophotometry
# Lookup of reported Activity keyed by entry
measured-metric: Activity (nmol/min/mg)

> print(dat)
                                   molecule          target  observed.measurement
1  O=C(C[Se][Se]CC(=O)NCCc1ccccc1)NCCc1ccccc1  UniProt O89049                  19.1
2               O=c1c2ccccc2[se]n1-c1ccccc1  UniProt O89049                   3.4
3  O=C(NCCc1ccccc1)c1ccccc1[Se][Se]c1ccccc1C(=O)NCCc1ccccc1  UniProt O89049                     0
4  CC(Cc1ccccc1)NC(=O)CC[Se][Se]CCC(=O)NC(C)Cc1ccccc1 (configuration not stated)  UniProt O89049                  13.7
5  CC(Cc1ccccc1)NC(=O)C[Se][Se]CC(=O)NC(C)Cc1ccccc1 (configuration not stated)  UniProt O89049                     0
6  CC(Cc1ccccc1)NC(=O)c1ccccc1[Se][Se]c1ccccc1C(=O)NC(C)Cc1ccccc1 (configuration not stated)  UniProt O89049                     0
7  O=C(CC[Se][Se]CCC(=O)NCCc1ccccc1)NCCc1ccccc1  UniProt O89049                  16.1

Attribution: ChEMBL document CHEMBL3352349
